Molecular target: GABA post-synaptic receptor
Assay: displacement of tritiated GABA from its post-synaptic receptor (synaptic membranes, Enna and Snyder)
Details: in vitro, tritiated GABA 3.6 nM, read-out: Median effective concentration (EC50) for displacement of tritiated GABA
pEC50: −log10 of the molar value.
measured quantity: pEC50

# count of solved cases: 2
>>> observed_value("Nc1ccc(-c2ccc(Cl)cc2)n[n+]1CCCC(=O)O")
5.90
>>> observed_value("Cc1cc(-c2cccc3ccccc23)n[n+](CCCC(=O)O)c1N")
5.54

1 = Nc1ccc(-c2ccsc2)n[n+]1CCCC(=O)O
2 = Nc1ccc(-c2cccs2)n[n+]1CCCC(=O)O
Of the two listed items, 1 and 2 , which carries the larger pEC50 figure? Lab log: write the label of the selected item as the result. 2

I = Nc1ccc(-c2ccccc2)n[n+]1CCCC(=O)O
II = Cc1ccc(-c2cc(C)c(N)[n+](CCCC(=O)O)n2)cc1
III = Cc1cc(-c2ccccc2)n[n+](CCC(=O)O)c1N
IV = Cc1cc(-c2ccccc2)n[n+](CCCC(=O)O)c1N
Order the items by recorded pEC50; the first position goes to the largest value. A ranking is expressed here by listing the labels in the requested order. II, I, IV, III
(II: 6.15, I: 5.87, IV: 5.55, III: 5.00)

I = Cc1cc(-c2cccc(Cl)c2)n[n+](CCCC(=O)O)c1N
II = Cc1cc(-c2ccccc2Cl)n[n+](CCCC(=O)O)c1N
Could you kindly indicate whether I or II has the higher pEC50 value? API: response body contains the label of the selected item. I

P = Cc1cc(-c2ccc(O)cc2)n[n+](CCCC(=O)O)c1N
Q = Nc1ccc(-c2ccc(Cl)cc2Cl)n[n+]1CCCC(=O)O
Min pEC50? P | Q In your reply, give the label of the chosen option. Q

a = Nc1ccc(C2CCCCC2)n[n+]1CCCC(=O)O
b = COc1ccc(-c2cc(C)c(N)[n+](CCCC(=O)O)n2)cc1
Of a and b , which one carries the higher reported pEC50? State the label of the item chosen. b
(b: 5.30, a: 4.98)

Hey, just so you know, these numbers are from patent US4721711A.
